target: Cholecystokinin receptor type A (Homo sapiens, UniProt P32238); assay: Agonist activity at human CCK1 receptor; type: functional
Sequence (P32238 whole entry): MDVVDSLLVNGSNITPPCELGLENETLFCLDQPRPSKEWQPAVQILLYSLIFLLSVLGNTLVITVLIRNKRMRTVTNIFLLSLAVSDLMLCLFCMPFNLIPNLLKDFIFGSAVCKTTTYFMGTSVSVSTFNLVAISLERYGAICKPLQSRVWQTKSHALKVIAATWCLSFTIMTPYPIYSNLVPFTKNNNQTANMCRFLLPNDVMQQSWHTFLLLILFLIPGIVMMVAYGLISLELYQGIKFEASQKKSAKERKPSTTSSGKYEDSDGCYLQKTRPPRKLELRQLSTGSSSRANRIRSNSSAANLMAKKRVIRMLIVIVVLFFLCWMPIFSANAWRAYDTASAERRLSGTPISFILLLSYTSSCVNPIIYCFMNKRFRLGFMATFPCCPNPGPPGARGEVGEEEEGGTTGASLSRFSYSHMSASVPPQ
measuredEndpoint: EC50 (nM)

CCOc1cccc(-n2cc(C(=O)N3CCN(c4cnc5ccccc5c4)C[C@@H]3COC(C)=O)nc2-c2ccc(C)cc2)c1 ... 0.25

(A) CCOc1cccc(-n2cc(C(=O)N3CCN(c4cnc5ccccc5c4)C[C@H]3C(=O)NCC(=O)O)nc2-c2ccc(C)cc2)c1
(B) CCOc1cccc(-n2cc(C(=O)N3CCN(c4cc(C(=O)O)c5ccccc5c4)C[C@H]3CNC(C)=O)nc2-c2ccc(C)cc2F)c1
Which value of EC50 is numerically greater: that of A or that of B ? # reply format: chosen label
A
(A: 0.089 nM, B: 0.033 nM)

(A) CCOc1cccc(-n2cc(C(=O)N3CCN(c4cc(C(=O)O)c5ccccc5c4)C[C@@H]3COCC(=O)O)nc2-c2ccc(C)cc2)c1
(B) CCOc1cccc(-n2cc(C(=O)N3CCN(c4cnc5ccccc5c4)C[C@H]3COC(C)=O)nc2-c2ccc(C)cc2)c1
Looking only at measured EC50, which entry is lower, A or B ? # reply format: chosen label
A

(a) CCOc1cccc(-n2cc(C(=O)N3CCN(c4cc(C(=O)O)c5ccccc5c4)C[C@@H]3C(=O)NC(C)C)nc2-c2ccc(C)cc2)c1
(b) CCOc1cccc(-n2cc(C(=O)N3CCN(c4cc(C(=O)O)c5ccccc5c4)C[C@H]3C(=O)NC(C)C)nc2-c2ccc(C)cc2)c1
Which value of EC50 is numerically greater: that of a or that of b ? # reply format: chosen label
a

(A) CCOc1cccc(-n2cc(C(=O)N3CCN(c4cnc5ccccc5c4)C[C@@H]3CNC(=O)NC)nc2-c2ccc(C)cc2)c1
(B) CCOc1cccc(-n2cc(C(=O)N3CCN(c4cnc5ccccc5c4)C[C@@H]3CNC(C)=O)nc2-c2ccc(C)cc2)c1
(C) CCOc1cccc(-n2cc(C(=O)N3CCN(c4cc(C(=O)O)c5ccccc5c4)CC3)nc2-c2ccc(C)cc2F)c1
(D) CCOc1cccc(-n2cc(C(=O)N3CCN(c4cnc5ccccc5c4)C[C@H]3CNS(C)(=O)=O)nc2-c2ccc(C)cc2)c1
Endpoint returns the given compounds ordered by ascending EC50. List the labels, following the order given in the request.
C, B, A, D

###

assay: Volume of distribution in mouse at 1 mg/kg, iv and 10 mg/kg, po; format: ADME, organism-based; details: in vivo
measuredEndpoint: Vd (L/kg)

(I) CCOc1cccc(-n2cc(C(=O)N3CCN(c4cc(C(=O)O)c5ccccc5c4)C[C@H]3C(=O)NC(C)C)nc2-c2ccc(C)cc2)c1
(II) CCOc1cccc(-n2cc(C(=O)N3CCN(c4cc(C(=O)O)c5ccccc5c4)C[C@H]3C(=O)NC(C)C)nc2-c2ccc(C)cc2F)c1
Which value of Vd is numerically greater: that of I or that of II ? # reply format: chosen label
I

###

molecular target: Cholecystokinin receptor type A (Homo sapiens, UniProt P32238); test: Agonist activity at human CCK1 receptor
measuredEndpoint: EC50 (nM)

For orientation, consider the following solved cases.
CCOc1cccc(-n2cc(C(=O)N3CCN(c4cc(C(=O)O)c5ccccc5c4)C[C@@H]3CNC(C)=O)nc2-c2ccc(C)cc2)c1 ... 0.04
CCOc1cccc(-n2cc(C(=O)N3CCN(c4cc(C(=O)O)c5ccccc5c4)C[C@H]3C(=O)NC(C)C)nc2-c2ccc(C)cc2F)c1 ... 0.071

(P) CCOc1cccc(-n2cc(C(=O)N3CCN(c4cc(C(=O)O)c5ccccc5c4)C[C@H]3COCC(=O)O)nc2-c2ccc(C)cc2F)c1
(Q) CCOc1cccc(-n2cc(C(=O)N3CCN(c4cnc5ccccc5c4)C[C@H]3COCC(=O)O)nc2-c2ccc(C)cc2)c1
(R) CCOc1cccc(-n2cc(C(=O)N3CCN(c4cnc5ccccc5c4)C[C@@H]3COCC(=O)O)nc2-c2ccc(C)cc2)c1
(S) CCOc1cccc(-n2cc(C(=O)N3CCN(c4cnc5ccccc5c4)C[C@H]3C(=O)NC(C)C)nc2-c2ccc(C)cc2)c1
Endpoint returns the given compounds ordered by ascending EC50. List the labels, following the order given in the request.
P, Q, R, S
